Reference source: ChEMBL document CHEMBL1142289

assay: Drug concentration in cynomolgus monkey at 1 mg/kg, iv after 5 mins; type: ADME, organism-based, Macaca fascicularis; parameters: dose 1 mg/kg, route intravenous; conditions: in vivo, read-out: Activity
Measured Quantity: concentration at 5 min (ng/mL)

structure_notation=Cc1cc(N2CCC(N(C)C(=O)CCS(=O)(=O)c3ccc4cc(Cl)ccc4c3)CC2)ccn1 test_result=565

====

experiment: Mean residence time in cynomolgus monkey at 1 mg/kg, po; type: ADME, organism-based, Macaca fascicularis; design: dose 1 mg/kg, route oral; settings: in vivo
Measured Quantity: MRT (h)

structure_notation=Cc1cc(N2CCC(N(C)C(=O)CCS(=O)(=O)c3ccc4cc(Cl)ccc4c3)CC2)ccn1 test_result=6.6

====

tested on: Cynomolgus monkey; assay: AUC in cynomolgus monkey at 1 mg/kg, iv; assay type: ADME, organism-based, Macaca fascicularis, Plasma; design: dose 1 mg/kg, route intravenous; settings: in vivo
Measured Quantity: AUC (ng·h/mL)

structure_notation=Cc1cc(N2CCC(N(C)C(=O)CCS(=O)(=O)c3ccc4cc(Cl)ccc4c3)CC2)ccn1 system_under_test="Cynomolgus monkey" unit_text=ng·h/mL test_result=1580

====

test: Cmax in cynomolgus monkey at 1 mg/kg, po; assay type: ADME, organism-based, Macaca fascicularis; design: dose 1 mg/kg, route oral; conditions: in vivo
Measured Quantity: Cmax (ng/mL)

structure_notation=Cc1cc(N2CCC(N(C)C(=O)CCS(=O)(=O)c3ccc4cc(Cl)ccc4c3)CC2)ccn1 unit_text=ng/mL test_result=134

====

molecular target: Coagulation factor X (Homo sapiens, UniProt P00742); assay: Inhibition of human factor 10a
Sequence (P00742 41-179 limits assumed): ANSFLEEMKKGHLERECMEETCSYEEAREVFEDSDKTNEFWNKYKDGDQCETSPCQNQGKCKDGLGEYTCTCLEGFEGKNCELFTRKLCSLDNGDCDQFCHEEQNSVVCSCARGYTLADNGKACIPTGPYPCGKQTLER
Sequence (P00742 235-488 limits assumed): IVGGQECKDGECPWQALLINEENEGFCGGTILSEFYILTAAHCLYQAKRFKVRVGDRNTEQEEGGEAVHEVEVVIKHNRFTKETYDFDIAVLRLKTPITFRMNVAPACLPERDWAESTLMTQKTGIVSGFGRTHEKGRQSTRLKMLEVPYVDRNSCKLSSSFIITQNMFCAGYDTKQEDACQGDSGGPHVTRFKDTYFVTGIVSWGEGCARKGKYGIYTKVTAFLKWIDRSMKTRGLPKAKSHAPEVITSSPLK
pIC50: −log10 of the molar value.
Measured Quantity: pIC50

structure_notation=O=C(O)CN(CCCS(=O)(=O)c1ccc2cc(Cl)ccc2c1)C(=O)C1CCN(c2ccncc2)CC1 measured_quantity=pIC50 relation_symbol== test_result=7.27
structure_notation=NCCN(C(=O)CCS(=O)(=O)c1ccc2cc(Cl)ccc2c1)C1CCN(c2ccncc2)CC1 measured_quantity=pIC50 relation_symbol== test_result=7.02
structure_notation=Cc1cc(N2CCC(N(C)C(=O)CCS(=O)(=O)c3ccc4cc(Cl)ccc4c3)CC2)ccn1 measured_quantity=pIC50 relation_symbol== test_result=7.21
structure_notation=NC(=O)CN(CCCS(=O)(=O)c1ccc2cc(Cl)ccc2c1)C(=O)C1CCN(c2ccncc2)CC1 measured_quantity=pIC50 relation_symbol== test_result=6.92
structure_notation=CCN(CCCS(=O)(=O)c1ccc2cc(Cl)ccc2c1)C(=O)C1CCN(c2ccncc2)CC1 measured_quantity=pIC50 relation_symbol== test_result=6.92
structure_notation=CC(C)N(CCCS(=O)(=O)c1ccc2cc(Cl)ccc2c1)C(=O)C1CCN(c2ccncc2)CC1 measured_quantity=pIC50 relation_symbol== test_result=6.60
structure_notation=CN(C(=O)CCS(=O)(=O)c1ccc2cc(Cl)ccc2c1)C1CCN(c2ccnc(N)c2)CC1 measured_quantity=pIC50 relation_symbol== test_result=7.10
structure_notation=Cc1ccc2cc(S(=O)(=O)CCC(=O)N(C)C3CCN(c4ccnc(C)c4)CC3)ccc2c1 measured_quantity=pIC50 relation_symbol== test_result=6.14
structure_notation=Cc1cc(N2CCC(N(C)C(=O)CCS(=O)(=O)c3ccc4c(Cl)cccc4c3)CC2)ccn1 measured_quantity=pIC50 relation_symbol=< test_result=5.30

====

experiment: AUC in cynomolgus monkey at 1 mg/kg, po; assay type: ADME, organism-based, Macaca fascicularis; parameters: dose 1 mg/kg, route oral; conditions: plasma
Measured Quantity: AUC

structure_notation=Cc1cc(N2CCC(N(C)C(=O)CCS(=O)(=O)c3ccc4cc(Cl)ccc4c3)CC2)ccn1 measured_quantity=AUC test_result="1030 ng·h/mL"
